# self-splicing fitness (ln) per entry
# Assay Details: self-splicing fitness, log relative to wild type (ln ratio); higher = more splicing; Tetrahymena group I intron in knt gene, E. coli kanamycin selection, DiMSum; sequences stand for … in CUCUCU…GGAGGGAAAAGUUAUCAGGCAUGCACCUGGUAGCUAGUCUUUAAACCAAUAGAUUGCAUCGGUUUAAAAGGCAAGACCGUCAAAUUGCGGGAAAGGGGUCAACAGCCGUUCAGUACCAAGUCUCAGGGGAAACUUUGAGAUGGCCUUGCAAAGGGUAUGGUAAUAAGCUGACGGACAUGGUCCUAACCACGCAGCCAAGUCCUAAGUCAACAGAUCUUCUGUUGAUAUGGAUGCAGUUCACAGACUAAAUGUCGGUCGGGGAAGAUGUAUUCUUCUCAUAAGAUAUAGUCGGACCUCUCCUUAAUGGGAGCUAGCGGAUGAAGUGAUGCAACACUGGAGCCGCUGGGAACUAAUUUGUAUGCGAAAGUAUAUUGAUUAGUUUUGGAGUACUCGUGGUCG;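 also: selection with 25 µg/mL kanamycin versus none on LB agar overnight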
# Condition: 30 °C
Answer with a number only.

>>> recorded_result("AGAAAGCAAUAUUACGGAAC")
-3.04
>>> recorded_result("GCCAAGCAAUAUUACGAAUC")
-1.25

# input Could you share which self-splicing fitness (ln) value was measured for UAUUAGCAAUAUUACGAUCC ?
# output -3.56

# input Name the recorded self-splicing fitness (ln) for AGACAGCAAUAUUACGUGCG .
# output -0.833

# input Can you look up the measured self-splicing fitness (ln) of CAAAAGCAAUAUUACGAUUU for me?
# output -1.18
